Tested on: L1210 leukemia ip in BDF1 mice, survival T/C
EXPERIMENT SUMMARY: NCI In Vivo Anticancer Drug Screen. Data for tumor model L1210 Leukemia (intraperitoneal) in B6D2F1 (BDF1) mice
TEST CONDITIONS: endpoint: mean survival time; dose: 400.0 mg/kg/injection; schedule: Q01DX001 (ip); vehicle: carboxymethylcellulose (CMC)
Toxic doses and inconclusive results are not listed. No stated cut-off is given here; in the data, active means T/C of 150% or more; inactive means T/C below 125%.
Labels: active, inactive

- COMPOUND: "COC(=O)C(Cc1c[nH]c2ccccc12)NC(=O)C(NC(=O)OC(C)(C)C)C(C)C (stereo unspecified)"
  CLASS ASSIGNMENT: "inactive"
- COMPOUND: "Oc1ccc(Cl)cc1C=Nc1cnc2ccccc2c1"
  CLASS ASSIGNMENT: "inactive"
- COMPOUND: "COC(=O)C(Br)C(Br)c1cc(OC)c(OC)c(OC)c1 (stereo unspecified)"
  CLASS ASSIGNMENT: "inactive"
- COMPOUND: "O=NN(CCCl)C(=O)Nc1ccc2c(c1)-c1ccccc1C2"
  CLASS ASSIGNMENT: "active"
- COMPOUND: "NC(=S)N/N=C1\\CCCC\\C1=N/NC(N)=S"
  CLASS ASSIGNMENT: "inactive"
- COMPOUND: "CC1C(C)(C)C1(F)Cl (stereo unspecified)"
  CLASS ASSIGNMENT: "inactive"
